target: Sodium-dependent serotonin transporter (Rattus norvegicus, UniProt P31652); experiment: Binding affinity towards serotonin [5-HT] reuptake site labeled with [3H]paroxetine as radioligand
Sequence (P31652 whole entry): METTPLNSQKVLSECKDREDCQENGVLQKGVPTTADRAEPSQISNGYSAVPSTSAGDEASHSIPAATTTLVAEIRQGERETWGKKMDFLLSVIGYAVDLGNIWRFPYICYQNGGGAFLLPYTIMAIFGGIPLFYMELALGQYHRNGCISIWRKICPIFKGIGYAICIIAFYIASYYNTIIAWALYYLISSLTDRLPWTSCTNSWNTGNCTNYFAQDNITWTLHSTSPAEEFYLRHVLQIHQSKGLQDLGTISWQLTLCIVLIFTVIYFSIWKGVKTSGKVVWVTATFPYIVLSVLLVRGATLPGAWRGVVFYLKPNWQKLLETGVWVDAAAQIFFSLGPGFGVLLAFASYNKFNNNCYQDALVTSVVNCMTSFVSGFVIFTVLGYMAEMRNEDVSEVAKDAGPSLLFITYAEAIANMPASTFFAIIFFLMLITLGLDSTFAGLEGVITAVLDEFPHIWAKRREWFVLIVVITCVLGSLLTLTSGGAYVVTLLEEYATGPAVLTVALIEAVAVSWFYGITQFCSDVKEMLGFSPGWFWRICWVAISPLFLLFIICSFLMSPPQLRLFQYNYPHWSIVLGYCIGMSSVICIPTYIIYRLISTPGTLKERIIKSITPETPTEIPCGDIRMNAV
measured quantity: Ki (µM)

These recorded examples may help you get a feel for the data.
| mol | assay value |
| --- | --- |
| COc1cccc2sc(C3CCN(C[C@H](O)COc4cccc5[nH]ccc45)CC3)cc12 | 0.0126 |
| O[C@H](COc1cccc2[nH]ccc12)CN1CCC(c2cc3c(F)cccc3s2)CC1 | 0.0159 |

P. O[C@H](COc1cccc2[nH]ccc12)CN1CCC(c2cc3c(Cl)cccc3s2)CC1
Q. COc1cccc2sc(C3CCN(C[C@H](O)COc4cccc5[nH]c(C)cc45)CC3)cc12
Please indicate which item has the smaller measured Ki: P versus Q Respond with the label that goes with your answer.
P
